# credit: paper PMC6274353

Tested on: P-glycoprotein (P-gp)
Experiment: in vitro
Settings: dog, MDCK-MDR1, with verapamil 100 µM

Structure smiles string | Papp B→A, ×10⁻⁶ cm/s
COC(=O)c1ccccc1-c1c2ccc(=N)cc-2oc2cc(N)ccc12 | 1.52

###

Experiment: bidirectional transport across the MDCK-pHaMDR cell monolayer (in vitro BBB model)
Settings: dog, MDCK-MDR1, pH 7.35

Compound | Papp at 90 min, 100 µM
O=C(CCCCCCCCc1ccccc1)c1c(O)cccc1O | ≤ 0.01 ×10⁻⁶ cm/s
C/C=C/c1cc(OC)c2c(c1)[C@@H](C)[C@H](c1ccc(O)c(OC)c1)O2 (racemic) [Compound 1, Dehydrodiisoeugenol] | ~1 ×10⁻⁶ cm/s
C/C=C/c1cc(OC)c2c(c1)[C@@H](C)[C@H](c1ccc3c(c1)OCO3)O2 | ≤ 0.01 ×10⁻⁶ cm/s
COc1cc([C@H]2c3cc(O)c(OC)cc3C[C@@H](C)[C@@H]2C)ccc1O | ≤ 0.01 ×10⁻⁶ cm/s
COc1cc2c(cc1O)[C@H](c1ccc3c(c1)OCO3)[C@@H](C)[C@H](C)C2 | ≤ 0.01 ×10⁻⁶ cm/s
C/C=C/c1cc(OC)c2c(c1)[C@@H](C)[C@H](c1cc(OC)c3c(c1)OCO3)O2 | ≤ 0.01 ×10⁻⁶ cm/s
O=C(CCCCCCCCc1ccc(O)c(O)c1)c1c(O)cccc1O | ~0.1 ×10⁻⁶ cm/s
COc1cc(CC(C)C(C)Cc2ccc(O)c(OC)c2)ccc1O (centres unmarked) [Compound 10, dihydroguaiaretic acid] | ~0.1 ×10⁻⁶ cm/s

###

Assay: bidirectional transport across the MDCK-pHaMDR cell monolayer (in vitro BBB model)
Conditions: dog, MDCK-MDR1, pH 7.35
The reader will find reported Papp B→A at 90 min, 100 µM values listed item by item below.

Compound | Unit of measurement | Value qualifier | Papp B→A at 90 min, 100 µM
COc1cc([C@H]2O[C@@H](c3ccc(O)c(OC)c3)[C@H](C)[C@@H]2C)ccc1O | ×10⁻⁶ cm/s | = | 15
COc1cc([C@H]2c3cc(O)c(OC)cc3C[C@@H](C)[C@@H]2C)ccc1O | ×10⁻⁶ cm/s | < | 0.073
C/C=C/c1cc(OC)c2c(c1)[C@@H](C)[C@H](c1ccc3c(c1)OCO3)O2 | ×10⁻⁶ cm/s | < | 0.06
C/C=C/c1cc(OC)c2c(c1)[C@@H](C)[C@H](c1ccc(O)c(OC)c1)O2 (racemic) [Compound 1, Dehydrodiisoeugenol] | ×10⁻⁶ cm/s | = | 1.82
COc1cc([C@H]2O[C@@H](c3ccc(O)c(OC)c3)[C@@H](C)[C@@H]2C)ccc1O | ×10⁻⁶ cm/s | = | 20.4
COc1cc2c(cc1O)[C@H](c1ccc3c(c1)OCO3)[C@@H](C)[C@H](C)C2 | ×10⁻⁶ cm/s | < | 0.07
COc1cc(CC(C)C(C)Cc2ccc(O)c(OC)c2)ccc1O (stereo not shown) [Compound 10, dihydroguaiaretic acid] | ×10⁻⁶ cm/s | < | 0.14

###

Test: bidirectional transport across the MDCK-pHaMDR cell monolayer (in vitro BBB model)
Conditions: dog, MDCK-MDR1, pH 7.35

Structure smiles string | Papp B→A at 90 min, 100 µM
O=C(CCCCCCCCc1ccccc1)c1c(O)cccc1O | < 0.037 ×10⁻⁶ cm/s
O=C(CCCCCCCCc1ccc(O)c(O)c1)c1c(O)cccc1O | 0.63 ×10⁻⁶ cm/s
C/C=C/c1cc(OC)c2c(c1)[C@@H](C)[C@H](c1cc(OC)c3c(c1)OCO3)O2 | < 0.055 ×10⁻⁶ cm/s

###

Experiment: bidirectional transport across the MDCK-pHaMDR cell monolayer (in vitro BBB model)
Settings: dog, MDCK-MDR1, pH 7.35
Readout label: Papp A→B at 90 min, 100 µM (×10⁻⁶ cm/s)

Compound | Value qualifier | Reported result
O=C(CCCCCCCCc1ccc(O)c(O)c1)c1c(O)cccc1O | = | 0.64
C/C=C/c1cc(OC)c2c(c1)[C@@H](C)[C@H](c1ccc(O)c(OC)c1)O2 (racemic) [Compound 1, Dehydrodiisoeugenol] | = | 2.43
COc1cc([C@H]2c3cc(O)c(OC)cc3C[C@@H](C)[C@@H]2C)ccc1O | < | 0.075
COc1cc([C@H]2O[C@@H](c3ccc(O)c(OC)c3)[C@H](C)[C@@H]2C)ccc1O | = | 10.4
C/C=C/c1cc(OC)c2c(c1)[C@@H](C)[C@H](c1cc(OC)c3c(c1)OCO3)O2 | < | 0.057
COc1cc([C@H]2O[C@@H](c3ccc(O)c(OC)c3)[C@@H](C)[C@@H]2C)ccc1O | = | 10.9
